Measured fractional inhibitory concentration index (FICI) values are reported for all entries that follow.
tested on: Mycolicibacterium smegmatis; test: Antitubercular activity against Mycobacterium smegmatis by checkerboard assay in presence of nor-chlorpromazine; type: functional
Could you keep your reply to the number by itself?

Here are 3 compounds together with their reported answers.
# Structure notation, Experimental value
measured = [
    ("CO[C@H]1/C=C/O[C@@]2(C)Oc3c(C)c(O)c4c(O)c(c(/C=N/N5CCN(C)CC5)c(O)c4c3C2=O)NC(=O)/C(C)=C\\C=C\\[C@H](C)[C@H](O)[C@@H](C)[C@@H](O)[C@@H](C)[C@H](OC(C)=O)[C@@H]1C", 0.5),
    ("NC[C@H]1O[C@H](O[C@H]2[C@H](O)[C@@H](O[C@H]3O[C@H](CO)[C@@H](O)[C@H](N)[C@H]3O)[C@H](N)C[C@@H]2N)[C@H](O)[C@@H](O)[C@@H]1O", 0.5),
    ("CO[C@H]1/C=C/O[C@@]2(C)Oc3c(C)c(O)c4c(O)c(c(/C=N/N5CCN(C)CC5)c(O)c4c3C2=O)NC(=O)/C(C)=C\\C=C\\[C@H](C)[C@H](O)[C@@H](C)[C@@H](O)[C@@H](C)[C@H](O)[C@@H]1C", 0.5),
]

What value of measured fractional inhibitory concentration index (FICI) is listed for `CN[C@@H]1[C@H](O)[C@H](NC)[C@H]2O[C@@]3(O)C(=O)C[C@@H](C)O[C@H]3O[C@@H]2[C@H]1O` ? 0.31

----------
test system: Mycolicibacterium smegmatis; experiment: Antitubercular activity against Mycobacterium smegmatis by checkerboard assay; format: functional
Result type: MIC99 (µM)
Provide the reading as a plain figure in µM.

Here are 2 compounds together with their reported answers.
# Structure notation, Unit of measurement, MIC99
rows = [
    ("CN(C)CCCN1c2ccccc2Sc2ccc(Cl)cc21", "µM", 117),
    ("CO[C@H]1/C=C/O[C@@]2(C)Oc3c(C)c(O)c4c(O)c(c(/C=N/N5CCN(C)CC5)c(O)c4c3C2=O)NC(=O)/C(C)=C\\C=C\\[C@H](C)[C@H](O)[C@@H](C)[C@@H](O)[C@@H](C)[C@H](O)[C@@H]1C", "µM", 5.33),
]

What value of measured MIC99 is listed for `CN[C@@H]1[C@H](O)[C@H](NC)[C@H]2O[C@@]3(O)C(=O)C[C@@H](C)O[C@H]3O[C@@H]2[C@H]1O` ? 84.1

Entry to check: `C[N+](C)([O-])CCCN1c2ccccc2Sc2ccc(Cl)cc21` 995

----------
system: Mycolicibacterium smegmatis; experiment: Antitubercular activity against Mycobacterium smegmatis by checkerboard assay in presence of chlorpromazine-N-oxide; assay type: functional
Result type: fractional inhibitory concentration index (FICI)
Could you keep your reply to the number by itself?

Here are 3 compounds together with their reported answers.
# Structure notation, System under test, Experimental value
data = [
    ("CO[C@H]1/C=C/O[C@@]2(C)Oc3c(C)c(O)c4c(O)c(c(/C=N/N5CCN(C)CC5)c(O)c4c3C2=O)NC(=O)/C(C)=C\\C=C\\[C@H](C)[C@H](O)[C@@H](C)[C@@H](O)[C@@H](C)[C@H](O)[C@@H]1C", "Mycolicibacterium smegmatis", 0.75),
    ("CN[C@@H]1[C@H](O)[C@H](NC)[C@H]2O[C@@]3(O)C(=O)C[C@@H](C)O[C@H]3O[C@@H]2[C@H]1O", "Mycolicibacterium smegmatis", 0.63),
    ("CO[C@H]1/C=C/O[C@@]2(C)Oc3c(C)c(O)c4c(O)c(c(/C=N/N5CCN(C)CC5)c(O)c4c3C2=O)NC(=O)/C(C)=C\\C=C\\[C@H](C)[C@H](O)[C@@H](C)[C@@H](O)[C@@H](C)[C@H](OC(C)=O)[C@@H]1C", "Mycolicibacterium smegmatis", 1),
]

Turning now to a further record.
What value of measured fractional inhibitory concentration index (FICI) is listed for `NC[C@H]1O[C@H](O[C@H]2[C@H](O)[C@@H](O[C@H]3O[C@H](CO)[C@@H](O)[C@H](N)[C@H]3O)[C@H](N)C[C@@H]2N)[C@H](O)[C@@H](O)[C@@H]1O` ? 1

----------
system: Mycolicibacterium smegmatis; test: Ratio of MIC99 for Mycobacterium smegmatis to ratio of MIC99 for Mycobacterium smegmatis in presence of nor-chlorpromazine; type: functional
Result type: Ratio
Could you keep your reply to the number by itself?

Here are 3 compounds together with their reported answers.
# Structure notation, Ratio
data = [
    ("CO[C@H]1/C=C/O[C@@]2(C)Oc3c(C)c(O)c4c(O)c(c(/C=N/N5CCN(C)CC5)c(O)c4c3C2=O)NC(=O)/C(C)=C\\C=C\\[C@H](C)[C@H](O)[C@@H](C)[C@@H](O)[C@@H](C)[C@H](O)[C@@H]1C", 0.252),
    ("NC[C@H]1O[C@H](O[C@H]2[C@H](O)[C@@H](O[C@H]3O[C@H](CO)[C@@H](O)[C@H](N)[C@H]3O)[C@H](N)C[C@@H]2N)[C@H](O)[C@@H](O)[C@@H]1O", 0.249),
    ("CO[C@H]1/C=C/O[C@@]2(C)Oc3c(C)c(O)c4c(O)c(c(/C=N/N5CCN(C)CC5)c(O)c4c3C2=O)NC(=O)/C(C)=C\\C=C\\[C@H](C)[C@H](O)[C@@H](C)[C@@H](O)[C@@H](C)[C@H](OC(C)=O)[C@@H]1C", 0.254),
]

What value of measured Ratio is listed for `CN[C@@H]1[C@H](O)[C@H](NC)[C@H]2O[C@@]3(O)C(=O)C[C@@H](C)O[C@H]3O[C@@H]2[C@H]1O` ? 0.062

----------
system: Mycolicibacterium smegmatis; assay: Ratio of MIC99 for Mycobacterium smegmatis to ratio of MIC99 for Mycobacterium smegmatis in presence of chlorpromazine; format: functional
Result type: Ratio
Could you keep your reply to the number by itself?

Here are 3 compounds together with their reported answers.
# Compound, Ratio
records = [
    ("CO[C@H]1/C=C/O[C@@]2(C)Oc3c(C)c(O)c4c(O)c(c(/C=N/N5CCN(C)CC5)c(O)c4c3C2=O)NC(=O)/C(C)=C\\C=C\\[C@H](C)[C@H](O)[C@@H](C)[C@@H](O)[C@@H](C)[C@H](O)[C@@H]1C [DESACETYLRIFAMPIN]", 0.25),
    ("CN[C@@H]1[C@H](O)[C@H](NC)[C@H]2O[C@@]3(O)C(=O)C[C@@H](C)O[C@H]3O[C@@H]2[C@H]1O [SPECTINOMYCIN]", 0.062),
    ("CN(C)CCCN1c2ccc(O)cc2Sc2ccc(Cl)cc21 [7-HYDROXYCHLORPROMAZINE]", 0.5),
]

Param readout= Ratio; system= Mycolicibacterium smegmatis; entry= CO[C@H]1/C=C/O[C@@]2(C)Oc3c(C)c(O)c4c(O)c(c(/C=N/N5CCN(C)CC5)c(O)c4c3C2=O)NC(=O)/C(C)=C\C=C\[C@H](C)[C@H](O)[C@@H](C)[C@@H](O)[C@@H](C)[C@H](OC(C)=O)[C@@H]1C [RIFAMPIN] ; returns value. 0.126

Entry to check: NC[C@H]1O[C@H](O[C@H]2[C@H](O)[C@@H](O[C@H]3O[C@H](CO)[C@@H](O)[C@H](N)[C@H]3O)[C@H](N)C[C@@H]2N)[C@H](O)[C@@H](O)[C@@H]1O [KANAMYCIN] 0.5

----------
tested on: Mycolicibacterium smegmatis; experiment: Antitubercular activity against Mycobacterium smegmatis by checkerboard assay in presence of chlorpromazine; assay type: functional
Measured fractional inhibitory concentration index (FICI) values are reported for all entries that follow.
Could you keep your reply to the number by itself?

What value of measured fractional inhibitory concentration index (FICI) is listed for `CO[C@H]1/C=C/O[C@@]2(C)Oc3c(C)c(O)c4c(O)c(c(/C=N/N5CCN(C)CC5)c(O)c4c3C2=O)NC(=O)/C(C)=C\C=C\[C@H](C)[C@H](O)[C@@H](C)[C@@H](O)[C@@H](C)[C@H](OC(C)=O)[C@@H]1C` ? 0.63

Entry to check: `CO[C@H]1/C=C/O[C@@]2(C)Oc3c(C)c(O)c4c(O)c(c(/C=N/N5CCN(C)CC5)c(O)c4c3C2=O)NC(=O)/C(C)=C\C=C\[C@H](C)[C@H](O)[C@@H](C)[C@@H](O)[C@@H](C)[C@H](O)[C@@H]1C` 0.5

Entry to check: `CN[C@@H]1[C@H](O)[C@H](NC)[C@H]2O[C@@]3(O)C(=O)C[C@@H](C)O[C@H]3O[C@@H]2[C@H]1O` 0.31

Entry to check: `NC[C@H]1O[C@H](O[C@H]2[C@H](O)[C@@H](O[C@H]3O[C@H](CO)[C@@H](O)[C@H](N)[C@H]3O)[C@H](N)C[C@@H]2N)[C@H](O)[C@@H](O)[C@@H]1O` 1
